- Settings: in PEG-400, 313.2 K
Readout name: solubility (mole fraction)
Answer with a bare number; do not write a unit.

### Prompt State its solubility (mole fraction): CCN(CC)CCNC(=O)c1c(C)[nH]c(/C=C2\C(=O)Nc3ccc(F)cc32)c1C.O=C(O)C[C@H](O)C(=O)O
### Response 0.0129

====

- Settings: in water, 298.2 K
Readout name: solubility (mole fraction)

### Prompt State its solubility (mole fraction): CCN(CC)CCNC(=O)c1c(C)[nH]c(/C=C2\C(=O)Nc3ccc(F)cc32)c1C.O=C(O)C[C@H](O)C(=O)O
### Response 3.72e-06

====

- Settings: in ethylene glycol, 308.2 K
Readout name: solubility (mole fraction)
Answer with a bare number; do not write a unit.

### Prompt State its solubility (mole fraction): CCN(CC)CCNC(=O)c1c(C)[nH]c(/C=C2\C(=O)Nc3ccc(F)cc32)c1C.O=C(O)C[C@H](O)C(=O)O
### Response 0.00186

Hey, just so you know, these numbers are from BigSolDB 2.1.
